EXPERIMENTAL DETAILS: Antagonist activity at CRTH2 receptor in human whole blood assessed as inhibition of PGD2-induced eosinophil shape change pretreated for 20 mins measured after 1 hr by flow cytometric analysis
MEASUREMENT TYPE: IC50 (nM)
Kindly answer with a numeric value in nM, unit omitted.

Qu. Return the recorded IC50 value; entry: O=C(O)CN1C(=O)[C@@]2(NC(=O)N(Cc3cc(Cl)ccc3F)C2=O)c2cc(Cl)ccc21
Ans. 69

Qu. Return the recorded IC50 value; entry: CN1C(=O)N(Cc2csc(-c3ccccc3)n2)C(=O)C12C(=O)N(CC(=O)O)c1ccc(Cl)cc12 (stereo not drawn)
Ans. 3940

Qu. Return the recorded IC50 value; entry: O=C(O)CN1C(=O)[C@@]2(CC(=O)N(Cc3cc(Cl)ccc3F)C2)c2cc(Cl)ccc21
Ans. 1800
